FYI, the data here is from PubChem BioAssay AID1159580.

- ASSAY DETAILS: chemical genetic growth profiling, strain panel (AID 1159580);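 note: tested at 20 µM; growth read once vehicle control cultures reached saturation at 30 °C; lower values mean less growth of the strain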
- DETAILS: S. cerevisiae deletion strains, growth OD, locus YJL154C, strain vps35
In all, about 5,500 compounds went through this assay and about 2,000 (36%) were called active. Inconclusive results (about 18%) are left out. Cut-off read from the data, not from the text of the source: active = normalized growth mostly below about 0.91 (no sharp cut-off); inconclusive = no clear call, values can overlap the other calls; inactive = mostly above about 0.92. The list shows a part of the results.
Please state which outcome applies, choosing from active, inactive

Take a look at these entries with their results.
O=C(/C=C/c1ccccc1)c1ccc(O[C@@H]2O[C@H](CO)[C@@H](O)[C@H](O)[C@H]2O)cc1O	inactive
O=C(/C=C/c1ccc(O)cc1)c1ccccc1O	active
CC(=O)CCCCn1c(=O)c2c(ncn2C)n(C)c1=O	inactive
Cn1c(=O)[nH]c2nc[nH]c2c1=O	inactive
O=C(Nc1ccc([N+](=O)[O-])cc1Cl)c1cc(Cl)ccc1O	inactive
ClC1C(Cl)C(Cl)C(Cl)C(Cl)C1Cl (centres undefined)	inactive

Hey, what did the test say about NS(=O)(=O)c1cc2c(cc1Cl)NCNS2(=O)=O ?
inactive

Test call, this molecule: CC[C@H]1OC(=O)[C@H](C)[C@@H](O[C@H]2C[C@@](C)(OC)[C@@H](O)[C@H](C)O2)[C@H](C)[C@@H](O[C@@H]2O[C@H](C)C[C@H](N(C)C)[C@H]2O)[C@](C)(O)C[C@@H](C)/C(=N/OCOCCOC)[C@H](C)[C@@H](O)[C@]1(C)O
inactive

Which outcome did this test record for the molecule Cn1c(=O)c2c(ncn2C)n(C)c1=O ?
inactive

###

- ASSAY DETAILS: chemical genetic growth profiling, strain panel (AID 1159580);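 note: tested at 20 µM; growth read once vehicle control cultures reached saturation at 30 °C; lower values mean less growth of the strain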
- DETAILS: S. cerevisiae deletion strains, growth OD, locus YOR270C, strain vph1
In all, about 5,500 compounds went through this assay and about 2,000 (36%) were called active. About 18% were inconclusive and are not listed. Cut-off read from the data, not from the text of the source: active = normalized growth mostly below about 0.91 (no sharp cut-off); inconclusive = no clear call, values can overlap the other calls; inactive = mostly above about 0.92. The list shows a part of the results.
Outcomes you can answer with include only these: YES for active, NO for inactive

CC[C@H]1OC(=O)[C@H](C)[C@@H](O[C@H]2C[C@@](C)(OC)[C@@H](O)[C@H](C)O2)[C@H](C)[C@@H](O[C@@H]2O[C@H](C)C[C@H](N(C)C)[C@H]2O)[C@](C)(O)C[C@@H](C)/C(=N/OCOCCOC)[C@H](C)[C@@H](O)[C@]1(C)O	NO
O=C1C=CC(=O)c2c(O)c(Cl)c(Cl)c(O)c21	YES
O=C(O)CC[N+](=O)[O-]	NO
COc1cc([C@@H]2c3cc4c(cc3[C@H](O)[C@H]3COC(=O)[C@H]23)OCO4)cc(OC)c1OC	NO

Outcome logged for O=C(O)CCC(=O)OC[C@@H](NC(=O)C(Cl)Cl)[C@H](O)c1ccc([N+](=O)[O-])cc1 in this assay:
NO

In this assay, the call recorded for COc1cc(OC)c2c(OC)c(-c3ccc4c(c3)OCO4)c(=O)oc2c1 was what?
NO

Please share the test call associated with CCCCCCCCCCCCCCCC(=O)OC[C@H](NC(=O)C(Cl)Cl)[C@H](O)c1ccc([N+](=O)[O-])cc1 .
NO

Tell me the assay call for C[C@H]1C(=O)CCC2[C@]3(C)CC[C@@]4(C)C5CC(C)(C)CC[C@]5(C)CC[C@]4(C)C3CC[C@@]21C (stereo partly specified) please.
NO

// return assay outcome for NC(Cc1ccc(Cl)cc1)C(=O)O (stereo unspecified)
NO

Test call, this compound: CC(C)C1CCC(C(=O)N[C@@H](Cc2ccccc2)C(=O)O)CC1 (stereo partly specified)
NO

Test call, this compound: CCCCCC/C=C\CCCCCCCc1cccc(O)c1C(=O)O
NO

Name the outcome recorded for C=C(C)C1Cc2c(ccc3c(=O)c4c(oc23)COc2cc(OC)c(OC)cc2-4)O1 (stereo unspecified) in the assay.
NO

What did the test return for CC(NC(C)(C)C)C(=O)c1cccc(Cl)c1 (stereo unspecified) ?
NO

Called result for CC1(C)CC23C(=O)CCC(O)C2(C)CCC13 (stereo unspecified)
NO

For O=c1c(O)c(-c2ccccc2)oc2ccc3occc3c12 , what call appears in the results of this test?
YES
